Molecular target: T1, human CD22, endogenous on Raji cells (human, UniProt P20273 20-847)
T1 construct: whole, on cells; Endogenous protein of the Raji cell line
T1 sequence (looked up): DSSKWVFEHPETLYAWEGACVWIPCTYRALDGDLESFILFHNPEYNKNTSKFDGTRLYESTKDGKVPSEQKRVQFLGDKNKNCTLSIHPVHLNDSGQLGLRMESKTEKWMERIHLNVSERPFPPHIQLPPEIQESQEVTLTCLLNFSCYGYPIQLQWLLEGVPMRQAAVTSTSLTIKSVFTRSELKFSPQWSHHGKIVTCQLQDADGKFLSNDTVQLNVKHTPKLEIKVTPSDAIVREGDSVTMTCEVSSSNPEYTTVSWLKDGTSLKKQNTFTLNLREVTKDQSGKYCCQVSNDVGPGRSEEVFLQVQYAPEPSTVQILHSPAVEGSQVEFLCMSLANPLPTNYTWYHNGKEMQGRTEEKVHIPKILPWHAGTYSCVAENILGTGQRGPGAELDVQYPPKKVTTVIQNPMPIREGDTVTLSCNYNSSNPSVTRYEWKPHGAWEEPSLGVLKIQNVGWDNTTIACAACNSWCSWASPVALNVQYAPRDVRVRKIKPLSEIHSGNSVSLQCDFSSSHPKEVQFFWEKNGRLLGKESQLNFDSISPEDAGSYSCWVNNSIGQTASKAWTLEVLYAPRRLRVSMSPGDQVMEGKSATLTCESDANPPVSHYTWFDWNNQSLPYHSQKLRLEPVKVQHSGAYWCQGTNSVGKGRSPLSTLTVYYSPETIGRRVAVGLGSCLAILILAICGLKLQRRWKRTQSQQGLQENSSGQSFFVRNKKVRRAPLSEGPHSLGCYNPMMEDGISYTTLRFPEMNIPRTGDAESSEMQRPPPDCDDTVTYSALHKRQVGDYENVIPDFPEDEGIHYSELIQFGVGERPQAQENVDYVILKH
Experiment: FACS, Raji cells
pEC50: −log10 of the molar value.

binder	pEC50
F1.120.15 human-murine chimeric antibody (antibody, human IgG1, kappa, V domains shown, Chimeric, human IgG1 / kappa) VH: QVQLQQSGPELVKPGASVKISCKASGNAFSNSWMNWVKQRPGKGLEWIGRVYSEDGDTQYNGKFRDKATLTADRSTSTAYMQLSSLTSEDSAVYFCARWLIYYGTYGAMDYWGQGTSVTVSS VL: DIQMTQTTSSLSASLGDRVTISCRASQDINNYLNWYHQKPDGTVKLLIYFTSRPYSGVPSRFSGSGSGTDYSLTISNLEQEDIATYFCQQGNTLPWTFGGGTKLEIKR	9.05
F1.62.10 human-murine chimeric antibody (antibody, human IgG1, kappa, V domains shown, Chimeric, human IgG1 / kappa) VH: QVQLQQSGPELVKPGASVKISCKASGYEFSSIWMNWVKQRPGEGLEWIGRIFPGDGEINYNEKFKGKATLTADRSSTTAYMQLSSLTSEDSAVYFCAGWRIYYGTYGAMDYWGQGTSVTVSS VL: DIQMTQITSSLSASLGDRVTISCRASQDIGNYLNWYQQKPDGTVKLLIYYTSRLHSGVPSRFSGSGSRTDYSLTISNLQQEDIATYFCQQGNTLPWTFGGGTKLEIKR	8.96
F1.231.15 human-murine chimeric antibody (antibody, human IgG1, V domains shown, Chimeric: murine V regions on human IgG1 heavy constant region and kappa light constant region) VH: QVQLQQPGAELVKPGASVKLSCKTSGYTFTIYWMQWVKQRPGRGLEWIGRIDPHSGDTHYNENFTTKVTLTVDETSNTAYMHLSGLTSEDSAVYYCARRDYSYYVLDYWGQGTSVTVSS VL: DVVLTQTPLSLPVSLGDQASISCRSSQSLVHINGDTYLHWYLQKPGQSPKLLIYTVFNRFSGVPDRFSGSGSGTDFTLKISRVEAEDLGAYFCSQSTHVPYTFGGGTKLEIKR	9.35
F1.245.2 human-murine chimeric antibody (antibody, human IgG1, kappa, V domains shown, Chimeric, human IgG1 / kappa) VH: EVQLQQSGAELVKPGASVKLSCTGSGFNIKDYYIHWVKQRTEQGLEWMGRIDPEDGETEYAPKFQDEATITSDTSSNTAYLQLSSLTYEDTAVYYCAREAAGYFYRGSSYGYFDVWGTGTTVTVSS VL: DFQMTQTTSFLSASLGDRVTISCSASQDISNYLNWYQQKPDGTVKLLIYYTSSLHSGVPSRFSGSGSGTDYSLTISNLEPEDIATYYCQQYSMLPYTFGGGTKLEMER	10.15
HA22-hIgG1 (antibody, V domains shown) VH: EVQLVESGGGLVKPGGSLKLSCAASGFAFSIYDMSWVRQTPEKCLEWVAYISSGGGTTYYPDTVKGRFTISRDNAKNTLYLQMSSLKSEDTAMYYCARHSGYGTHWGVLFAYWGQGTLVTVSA VL: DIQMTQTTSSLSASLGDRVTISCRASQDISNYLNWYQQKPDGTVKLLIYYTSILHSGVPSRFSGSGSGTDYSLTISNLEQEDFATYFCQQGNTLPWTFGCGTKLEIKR	9.54
